Biological target: UniProt P06493
Sequence (P06493 whole entry): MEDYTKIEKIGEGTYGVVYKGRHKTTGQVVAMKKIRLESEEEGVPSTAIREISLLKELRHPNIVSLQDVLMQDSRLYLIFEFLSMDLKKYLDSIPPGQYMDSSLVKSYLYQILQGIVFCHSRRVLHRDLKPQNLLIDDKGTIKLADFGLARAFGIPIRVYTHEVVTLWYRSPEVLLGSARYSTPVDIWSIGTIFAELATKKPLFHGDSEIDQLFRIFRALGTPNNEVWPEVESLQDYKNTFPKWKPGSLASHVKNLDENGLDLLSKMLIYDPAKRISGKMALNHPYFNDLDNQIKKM
Assay: Inhibition of human recombinant CDK1 using histone H1 as substrate and [gamma33P]-ATP after 15 mins by scintillation counting
Settings: read-out: IC50
pIC50: −log10 of the molar value.

{"columns": ["COMPOUND", "EXPERIMENTAL_SYSTEM", "pIC50"],
 "data": [
  ["CC1=C(O)[C@@H](C/C(C)=C/CCC(C)/C=C/C=C(\\C)CCCc2ccoc2)OC1=O (stereo in doubt; A)", "UniProt P06493", "< 4.00"]
]}

* * *

Target: Glycogen synthase kinase-3 alpha (Homo sapiens, UniProt P49840)
Sequence (P49840 whole entry): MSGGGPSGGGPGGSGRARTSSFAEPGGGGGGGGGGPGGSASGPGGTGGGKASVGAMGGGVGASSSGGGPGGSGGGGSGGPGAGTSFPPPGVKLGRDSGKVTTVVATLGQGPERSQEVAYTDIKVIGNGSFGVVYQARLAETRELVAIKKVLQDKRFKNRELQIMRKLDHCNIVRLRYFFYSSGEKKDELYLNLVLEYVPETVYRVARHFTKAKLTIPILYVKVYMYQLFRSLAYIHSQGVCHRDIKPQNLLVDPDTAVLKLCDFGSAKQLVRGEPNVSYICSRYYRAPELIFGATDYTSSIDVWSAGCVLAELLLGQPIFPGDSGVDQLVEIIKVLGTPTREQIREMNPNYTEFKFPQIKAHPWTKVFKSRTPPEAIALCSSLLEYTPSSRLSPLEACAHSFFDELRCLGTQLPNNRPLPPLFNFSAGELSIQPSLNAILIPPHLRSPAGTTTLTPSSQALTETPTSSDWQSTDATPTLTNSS
Assay: Inhibition of human recombinant GSK-3alpha using GS2 peptide as substrate and [gamma33P]-ATP after 12 mins by scintillation counting
pIC50: −log10 of the molar value.

{"columns": ["MOLECULE", "pIC50"],
 "data": [
  ["CC1=C(O)[C@@H](C/C(C)=C/CCC(C)/C=C/C=C(\\C)CCCc2ccoc2)OC1=O (stereo in doubt; A) [PALINURIN]", 5.80]
]}

Cited source: ChEMBL document CHEMBL2311349
